- Target Under Test: T1, Human glypican-3, recombinant, construct not stated (human, UniProt P51654 25-559, limits assumed, biotin in the positional scanning (site not stated))
- T1 construct: also called recombinant GPC3; human GPC3
- T1 sequence (P51654 25-559 limits assumed): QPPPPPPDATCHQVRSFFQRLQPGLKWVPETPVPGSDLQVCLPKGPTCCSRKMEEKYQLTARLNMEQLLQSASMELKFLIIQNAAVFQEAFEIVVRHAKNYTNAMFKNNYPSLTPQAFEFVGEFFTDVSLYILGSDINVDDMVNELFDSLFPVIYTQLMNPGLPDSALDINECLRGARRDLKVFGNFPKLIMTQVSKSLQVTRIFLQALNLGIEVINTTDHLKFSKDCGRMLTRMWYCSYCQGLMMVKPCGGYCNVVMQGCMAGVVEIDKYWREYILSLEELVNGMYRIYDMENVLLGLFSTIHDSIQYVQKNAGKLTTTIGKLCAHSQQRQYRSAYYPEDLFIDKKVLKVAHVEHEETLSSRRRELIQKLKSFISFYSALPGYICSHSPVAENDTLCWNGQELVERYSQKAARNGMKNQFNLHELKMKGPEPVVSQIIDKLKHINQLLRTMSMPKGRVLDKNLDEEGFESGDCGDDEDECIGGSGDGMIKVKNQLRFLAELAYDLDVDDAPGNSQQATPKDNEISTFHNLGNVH
- Protocol Description: ELISA, recombinant GPC3
Observed Property: ELISA OD (OD)
The response must be a number in OD with no trailing unit.

query: Give reported ELISA OD value for ADX_4606_F06 (designed binder) MGVSDVPRDLEVVAATPTSLLISWNSGHSGQYYRITYGETGGNSPVQEFTVPRYGYTATISGLKPGVDYTITVYAVAHSEASAPISINYRTEIDKPSQ
result: 1.73

query: Give reported ELISA OD value for ADX_5273_D01 (designed binder) MGVSDVPRDLEVVAATPTSLLISWEPSYKDDRYYRITYGETGGNSPVQEFTVPSFHQTATISGLKPGVDYTITVYAVTYEPDEYYFYYPISINYRTEIDKPSQ
result: 2.1

query: Give reported ELISA OD value for ADX_5273_C01 (designed binder) MGVSDVPRDLEVVAATPTSLLISWSDPYEEERYYRITYGETGGNSPVQEFTVPAFHTTATISGLKPGVDYTITVYAVTYKHKYAYYYPPISINYRTEIDKPSQ
result: 1.35

query: Give reported ELISA OD value for ADX_4578_H08 (designed binder) MGVSDVPRDLEVVAATPTSLLISWSGYDYGDSYYRITYGETGGNSPVQEFTVPDGSNTATISGLKPGVDYTITVYAVEAYGKGYTRYTPISINYRTEIDKPSQ
result: 1.02
